# experimental protocol: Moulding process: time to stable tablets (consolidation/solidification time) and liquid amount after wetting the powder
# Type: physicochemical
# condition description: wetted with water
readout kind: consolidation/solidification time (in words)

[
  {
    "molecule": "O=S(=O)([O-])[O-].[Mg+2] [MgSO4 anhydrate]",
    "recorded result": "within a few seconds"
  },
  {
    "molecule": "OC[C@H]1O[C@H](OC[C@H]2O[C@H](O[C@]3(CO)O[C@H](CO)[C@@H](O)[C@@H]3O)[C@H](O)[C@@H](O)[C@@H]2O)[C@H](O)[C@@H](O)[C@H]1O [Raffinose anhydrate]",
    "recorded result": "within a few seconds"
  },
  {
    "molecule": "O=S(=O)([O-])[O-].[Na+].[Na+] [Na2SO4 anhydrate]",
    "recorded result": "within a few seconds"
  }
]
